Parameter total protein half-life in vivo: see the listing below.
Assay Procedure: total protein half-life in vivo (active degradation + dilution); higher = more stable protein
Setup Conditions: E. coli NCM3722 delta-lon; growth: N-lim chemostat; doubling time 6 h

Biopolymer Sequence | total protein half-life in vivo / h
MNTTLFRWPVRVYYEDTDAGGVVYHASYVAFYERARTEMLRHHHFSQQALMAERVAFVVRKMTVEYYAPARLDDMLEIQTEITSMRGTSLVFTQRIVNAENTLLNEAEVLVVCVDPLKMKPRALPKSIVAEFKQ [P0A8Z3] | 6.27
MKTPLVTREGYEKLKQELNYLWREERPEVTKKVTWAASLGDRSENADYQYNKKRLREIDRRVRYLTKCLENLKIVDYSPQQEGKVFFGAWVEIENDDGVTHRFRIVGYDEIFGRKDYISIDSPMARALLKKEVGDLAVVNTPAGEASWYVNAIEYVKP | 4.34
MIDFGNFYSLIAKNHLSHWLETLPAQIANWQREQQHGLFKQWSNAVEFLPEIKPYRLDLLHSVTAESEEPLSAGQIKRIETLMRNLMPWRKGPFSLYGVNIDTEWRSDWKWDRVLPHLSDLTGRTILDVGCGSGYHMWRMIGAGAHLAVGIDPTQLFLCQFEAVRKLLGNDQRAHLLPLGIEQLPALKAFDTVFSMGVLYHRRSPLEHLWQLKDQLVNEGELVLETLVIDGDENTVLVPGDRYAQMRNVYFIPSALALKNWLKKCGFVDIRIADVSVTTTEEQRRTEWMVTESLADFLDPHDPGKTVEGYPAPKRAVLIARKP | 5.97
MSQTVHFQGNPVTVANSIPQAGSKAQTFTLVAKDLSDVTLGQFAGKRKVLNIFPSIDTGVCAASVRKFNQLATEIDNTVVLCISADLPFAQSRFCGAEGLNNVITLSTFRNAEFLQAYGVAIADGPLKGLAARAVVVIDENDNVIFSQLVDEITTEPDYEAALAVLKA [P0A862] | 4.96

* * *

Parameter total protein half-life in vivo: see the listing below.
Assay Procedure: total protein half-life in vivo (active degradation + dilution); higher = more stable protein
Setup Conditions: wild type E. coli NCM3722; growth: C-lim chemostat; doubling time 12 h

Biopolymer Sequence | total protein half-life in vivo
MKITVLGCGALGQLWLTALCKQGHEVQGWLRVPQPYCSVNLVETDGSIFNESLTANDPDFLATSDLLLVTLKAWQVSDAVKSLASTLPVTTPILLIHNGMGTIEELQNIQQPLLMGTTTHAARRDGNVIIHVANGITHIGPARQQDGDYSYLADILQTVLPDVAWHNNIRAELWRKLAVNCVINPLTAIWNCPNGELRHHPQEIMQICEEVAAVIEREGHHTSAEDLRDYVMQVIDATAENISSMLQDIRALRHTEIDYINGFLLRRARAHGIAVPENTRLFEMVKRKESEYERIGTGLPRPW [P0A9J4] | 4.51 h
MNLQHHFLIAMPALQDPIFRRSVVYICEHNTNGAMGIIVNKPLENLKIEGILEKLKITPEPRDESIRLDKPVMLGGPLAEDRGFILHTPPSNFASSIRISDNTVMTTSRDVLETLGTDKQPSDVLVALGYASWEKGQLEQEILDNAWLTAPADLNILFKTPIADRWREAAKLIGVDILTMPGVAGHA [P0A8W5] | 8.21 h
MKLRDSLAENKSIRLQAEAETWQEAVKIGVDLLVAADVVEPRYYQAILDGVEQFGPYFVIAPGLAMPHGRPEEGVKKTGFSLVTLKKPLEFNHDDNDPVDILITMAAVDANTHQEVGIMQIVNLFEDEENFDRLRACRTEQEVLDLIDRTNAAA | 7.31 h
MKQYLIAPSILSADFARLGEDTAKALAAGADVVHFDVMDNHYVPNLTIGPMVLKSLRNYGITAPIDVHLMVKPVDRIVPDFAAAGASIITFHPEASEHVDRTLQLIKENGCKAGLVFNPATPLSYLDYVMDKLDVILLMSVNPGFGGQSFIPQTLDKLREVRRRIDESGFDIRLEVDGGVKVNNIGEIAAAGADMFVAGSAIFDQPDYKKVIDEMRSELAKVSHE [P0AG07] | 11.4 h
